The reported measurements were obtained from patent US20200368361A1.

Below, each of the binders is paired with its reported binding signal ratio to isotype control (11 nM) value.
Biological target: T1, full length monkey MSR1 on HEK293.mfMSR1 cells (Macaca fascicularis, UniProt A0A2K5UWE2 1-451)
T1 construct: whole, on cells
T1 sequence: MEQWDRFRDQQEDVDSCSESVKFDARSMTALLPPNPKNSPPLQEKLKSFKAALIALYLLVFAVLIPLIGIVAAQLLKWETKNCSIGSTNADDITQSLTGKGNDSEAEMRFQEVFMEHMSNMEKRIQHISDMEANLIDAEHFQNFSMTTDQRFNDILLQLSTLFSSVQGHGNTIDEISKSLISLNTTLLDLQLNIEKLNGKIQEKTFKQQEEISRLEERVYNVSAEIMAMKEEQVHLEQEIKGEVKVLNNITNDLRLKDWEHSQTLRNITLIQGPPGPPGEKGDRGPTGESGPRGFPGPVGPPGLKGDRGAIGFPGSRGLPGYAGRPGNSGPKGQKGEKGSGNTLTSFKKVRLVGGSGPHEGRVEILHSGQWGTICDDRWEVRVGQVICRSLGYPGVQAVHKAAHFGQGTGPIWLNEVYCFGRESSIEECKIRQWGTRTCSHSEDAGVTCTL
Assay: ECL cell binding, HEK293.mfMSR1
Note: unit fold is implicit; provide only the numeric part.

These recorded examples may help you get a feel for the data.
- BINDER: "H2aM21229N (antibody, mouse IgG2a, V domains shown, mouse IgG2a Fc) VH: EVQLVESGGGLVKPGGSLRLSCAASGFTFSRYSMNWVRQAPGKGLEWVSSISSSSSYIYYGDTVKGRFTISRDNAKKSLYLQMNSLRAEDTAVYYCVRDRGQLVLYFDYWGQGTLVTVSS VL: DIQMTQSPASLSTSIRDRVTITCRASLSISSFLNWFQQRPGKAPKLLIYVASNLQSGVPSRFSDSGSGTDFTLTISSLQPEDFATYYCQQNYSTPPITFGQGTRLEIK"
  MEASURED_VALUE: 27
- BINDER: "H1H27734P-N297Q (antibody, human IgG1, V domains shown, human IgG1 Fc with N297Q) VH: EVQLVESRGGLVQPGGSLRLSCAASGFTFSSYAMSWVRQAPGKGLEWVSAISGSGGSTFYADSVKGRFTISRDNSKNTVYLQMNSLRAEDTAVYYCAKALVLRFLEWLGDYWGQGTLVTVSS VL: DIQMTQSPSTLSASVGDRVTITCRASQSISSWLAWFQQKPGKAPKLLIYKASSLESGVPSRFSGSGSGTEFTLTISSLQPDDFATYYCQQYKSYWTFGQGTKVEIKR"
  MEASURED_VALUE: 28

Next:
Identify measured binding signal ratio to isotype control (11 nM) corresponding to H1H27739P-N297Q (antibody, human IgG1, V domains shown, human IgG1 Fc with N297Q) VH: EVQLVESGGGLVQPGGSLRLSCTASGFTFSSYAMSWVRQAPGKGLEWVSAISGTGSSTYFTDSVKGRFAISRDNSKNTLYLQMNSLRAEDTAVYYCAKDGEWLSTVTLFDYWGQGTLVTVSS VL: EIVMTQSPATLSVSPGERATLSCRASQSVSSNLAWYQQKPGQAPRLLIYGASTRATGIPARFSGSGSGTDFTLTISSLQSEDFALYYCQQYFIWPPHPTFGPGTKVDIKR
20
